# credit: PubChem BioAssay (EPA / NIEHS)

Procedure Text: ACEA_AR_antagonist_AUC_viability: ACEA Biosciences xCELLigence Real-Time Cell Analysis on Androgen Receptor Antagonism for Viability (AID 2283776);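 further: 22Rv1 human prostate cancer cells growing on impedance electrode plates; area under impedance growth curve at 80 h after dosing as viability; hits lower the growth signal relative to DMSO meaning cytotoxicity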
Records with an inconclusive call do not appear. The source made the active and inactive calls. How the source made its calls: active means hit-call score of the fitted dose curve at least 0.9, where 1 is the maximum; inconclusive means response in the unintended direction; inactive means score below 0.9.
Possible outcomes: active, inactive

Compound	Category Label
COc1nn(C(=O)NS(=O)(=O)c2ccccc2OC(F)(F)F)c(=O)n1C	inactive
CC(C)O.CC(C)O.OCCN(CCO)CCO.OCCN(CCO)CCO.[Ti]	inactive
O=C(O)C1(c2ccc3c(c2)OC[C@H](Cc2ccc(-c4ccccc4)cc2)[C@H]3O)CCCC1	inactive
O=S1OC[C@@H]2[C@H](CO1)[C@]1(Cl)C(Cl)=C(Cl)[C@@]2(Cl)C1(Cl)Cl (stereo partly drawn)	inactive
Cc1cc(Cl)ccc1OCCCC(=O)O	inactive
O=C(CCl)Nc1ccccc1	active
CN(C)C(=S)S	inactive
C=CC(Cl)CCl (stereo not drawn)	active
CC(C)(C)c1ccccc1O	inactive
Oc1cc(Cl)c(Cl)cc1Cl	active
OCCN(CCO)CCO	inactive
O=C(N[C@H]1CN2CCC1CC2)c1ccc2c(c1)OCCO2	inactive
CCCCCCCCCCCCN(C)C	inactive

* * *

Procedure Text: ATG_NRF2_ARE_CIS: Attagene CIS-FACTORIAL HepG2 Assay for human Nuclear Factor Erythroid 2 Related Factor 2 (NFR2) response to Antioxidant Response Elements (ARE) (AID 2282992)
Measurement Context: HepG2 Attagene ARE/NRF2 reporter, transcription factor activity; actives raise or lower the signal
The source made the active and inactive calls. The calls were made as follows: active = hit-call score of the fitted dose curve at least 0.9, where 1 is the maximum; inactive = score below 0.9.
Possible outcomes: YES for active, NO for inactive

Molecule	Category Label
c1ccc2sc(SNC3CCCCC3)nc2c1	YES
Cc1cccc(N=Nc2ccc(N(C)C)cc2)c1	YES
CC(C)[C@H](C(=O)OC(C#N)c1cccc(Oc2ccccc2)c1)c1ccc(OC(F)F)cc1 (some centres undefined)	NO
Oc1ccc(Cc2ccc(O)cc2)cc1	YES
CC1(C)COP(Oc2ccccc2)OC1	NO
O=C(CCl)Nc1ccccc1	YES
Cc1cccc(C)c1NC(=O)CN1CCCC1=O	NO
C=C(C)[C@@H]1CC=C(C=O)CC1	YES
O=NN1CCOCC1	NO
CC(C)C(C)(N)C#N (centres undefined)	NO
C=CC(F)(C(F)(F)F)C(F)(F)C(F)(F)F (centres undefined)	NO
CN(CCCC(O)c1cccnc1)N=O (centres undefined)	NO
CCCCN(CCCCO)N=O	NO
Cc1cc(C(C)(C)c2ccc(O)c(C)c2)ccc1O	YES

* * *

Procedure Text: CCTE_Mundy_HCI_hNP1_CellTiter: CCTE's Cell Titer-Glo 2 Assay in human neuroprogenitor cells for Viability, Mundy Lab (AID 2284241)
Results filed as inconclusive are left out. The source made the active and inactive calls. How the source made its calls: active means hit-call score of the fitted dose curve at least 0.9, where 1 is the maximum; inconclusive means response in the unintended direction; inactive means score below 0.9.
Possible outcomes: 1.0 for active, 0.0 for inactive

Molecule	Category Label
NC(=O)c1ccc(N)nc1	0.0
Cc1ccccc1OP(=O)(Oc1ccccc1C)Oc1ccccc1C	1.0
CS(=O)(=O)c1ccc(C(=O)C2C(=O)CCCC2=O)c(Cl)c1COCC(F)(F)F	0.0
CC(C)[C@@H](Nc1ccc(C(F)(F)F)cc1Cl)C(=O)OC(C#N)c1cccc(Oc2ccccc2)c1 (stereo not given in full)	0.0
CNC(=O)CSP(=O)(OC)OC	0.0

* * *

Read-out: Macrophage colony-stimulating factor (MCSF), CSF1 (gene 1435)
Procedure Text: BSK_hDFCGF_MCSF: BioMAP Diversity Plus: hDFCGF Assay for Macrophage colony-stimulating factor (MCSF) Biomarker Activity (AID 2283060)
Measurement Context: primary human foreskin fibroblasts; actives raise or lower the signal
The source made the active and inactive calls. Rule for the calls: active = hit-call score of the fitted dose curve at least 0.9, where 1 is the maximum; inactive = score below 0.9.
Possible outcomes: active, inactive

Compound	Category Label
O=C(CCl)NCO	inactive
CC(C)(C)c1ccccc1O	inactive
OC(Cc1ccccc1Cl)(Cn1[nH]cnc1=S)C1(Cl)CC1 (configuration not stated)	active
Cc1cccc(OP(=O)(Oc2cccc(C)c2)Oc2cccc(C)c2)c1	active
Cc1ccccc1OP(=O)(Oc1ccccc1C)Oc1ccccc1C	active
Oc1c(Br)cc(Br)cc1Br	inactive
Clc1cccc(Cl)c1	inactive
